- Tested on: mono-methyl arginine in RKO cells
- protocolDetails: RKO Methylation Assay, In Cell Western (ICW) for mono-methyl arginine and DNA content
- Assay type: cell-based
- setupConditions: Homo sapiens, RKO, 72 h, RKO cells, 72 hours, mono-methyl arginine, percent activation; single experiment or average of multiple experiments; read-out: EC30 (In Cell Western data, Numerical)
Please respond with reported EC30 for every item in the list.
Express your answer in nM, writing the number without its unit.

get_value(item= CN(CCN)Cc1c[nH]nc1-c1cc(F)cc(Cl)c1 , readout=EC30) returns 2070

get_value(item= CN(CCN)Cc1c[nH]nc1-c1ccc(OC2CCOCC2)cc1 , readout=EC30) returns 954

get_value(item= CN(CCN)Cc1c[nH]nc1-c1ccc(OCCO)cc1 , readout=EC30) returns 17000

get_value(item= CN(CCN)Cc1c[nH]nc1-c1ccc(OC2CC2)cc1 , readout=EC30) returns 607

get_value(item= CNCCN(C)Cc1c[nH]nc1-c1cc(Cl)c(OC(C)C)c(Cl)c1 , readout=EC30) returns 503

get_value(item= CN(CCN)Cc1c[nH]nc1-c1cccc(Cl)c1 , readout=EC30) returns 3480

get_value(item= CN(CCN)Cc1c[nH]nc1-c1ccc(OCC(F)(F)F)cc1 , readout=EC30) returns 920

get_value(item= CNCCN(C)Cc1n[nH]c(C)c1-c1ccc(OC(C)C)cc1 , readout=EC30) returns 122

* * *

- Test system: mono-methyl arginine in RKO cells
- protocolDetails: RKO Methylation Assay, In Cell Western (ICW) for mono-methyl arginine and DNA content
- Format: cell-based
- setupConditions: Homo sapiens, RKO, 72 h, RKO cells, 72 hours, mono-methyl arginine, percent activation; single experiment or average of multiple experiments; read-out: EC30 (In Cell Western data, Numerical)
- Experimental: RKO adherent cells were purchased from ATCC (American Type Culture Collection), Manassas, Va., USA. […] First, the ratio for each well was determined by: Each plate included fourteen control wells of DMSO only treatment (minimum activation) as well as fourteen control wells for maximum activation treated with 20 μM of a reference compound. The average of the ratio values for each control type was calculated and used to determine the percent activation for each test well in the plate. […]
measurementKind: EC30

get_value(item= CN(CCN)Cc1c[nH]nc1-c1ccc(OCCCN2CCOCC2)cc1 , readout=EC30) returns 12.8 µM

get_value(item= CN(CCN)Cc1c[nH]nc1-c1ccc(Oc2ccccc2)c(C(=O)N(C)C)c1 , readout=EC30) returns > 20 µM

get_value(item= CN(CCN)Cc1c[nH]nc1-c1ccc(C#N)cc1 , readout=EC30) returns 0.775 µM

get_value(item= CNCCN(C)Cc1c[nH]nc1-c1ccc(O)cc1 , readout=EC30) returns 12.3 µM

get_value(item= CNCCN(C)Cc1c[nH]nc1-c1ccc(OCC2CCOC2)cc1 (stereo not shown) , readout=EC30) returns 0.62 µM

get_value(item= CCn1ncc(CN(C)CCNC)c1-c1ccc(F)cc1 , readout=EC30) returns 5.76 µM

get_value(item= CNCCN(C)Cc1c[nH]nc1-c1ccc(N(C)C(C)C)cc1 , readout=EC30) returns 0.611 µM

get_value(item= CN(CCN)Cc1c[nH]nc1-c1cccc(C#N)c1 , readout=EC30) returns > 20 µM

get_value(item= CN(CCN)Cc1n[nH]cc1-c1ccc(C(F)(F)F)cc1 , readout=EC30) returns 3.67 µM

get_value(item= CNCCN(C)Cc1nn(C)cc1-c1ccc(OCCCOC)cc1 , readout=EC30) returns > 20 µM
